- studySystem: DNA repair protein RAD52 homolog (Homo sapiens) (UniProt P43351)
- Sequence (P43351 whole entry, looked up): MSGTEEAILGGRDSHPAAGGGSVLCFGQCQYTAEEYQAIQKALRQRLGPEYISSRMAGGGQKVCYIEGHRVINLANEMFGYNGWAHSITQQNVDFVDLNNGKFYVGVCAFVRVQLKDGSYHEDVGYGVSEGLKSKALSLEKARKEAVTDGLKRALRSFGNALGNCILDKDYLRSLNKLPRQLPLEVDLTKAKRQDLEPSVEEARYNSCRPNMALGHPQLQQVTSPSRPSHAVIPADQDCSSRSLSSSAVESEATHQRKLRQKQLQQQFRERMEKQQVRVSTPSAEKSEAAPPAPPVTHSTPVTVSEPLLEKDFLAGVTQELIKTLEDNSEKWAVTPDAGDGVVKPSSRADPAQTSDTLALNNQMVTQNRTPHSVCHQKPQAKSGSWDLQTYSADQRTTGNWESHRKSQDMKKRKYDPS
- assay: blockers of RAD52 strand annealing activity – biochemical, FRET, single point, set 2, primary screen (AID 651710)
- conditionsUsed: recombinant RAD52 DNA annealing, FRET fluorescence; at 18.7 µM
The whole screen tested about 360,000 compounds, of which about 1,600 (0.44%) were called active.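 How the source made its calls: active means every replicate showing at least 50% inhibition; inconclusive means mean inhibition at least 50% but not in every replicate; inactive means the rest.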 The full list was thinned out, with actives kept by preference.
Hi! Could you answer with just one of these? yes (1) = active, no (0) = inactive

compound="Clc1ccc([C@@H]2CC3CCC2N3)cn1 (some centres undefined)" labelclass="no (0)"
compound=O=C(Cc1ccncc1)N1CCCCN2[C@@H](CO)[C@H](c3ccc(-c4ccncc4)cc3)[C@@H]2C1 labelclass="no (0)"
compound=O=C(NC[C@@H]1CC[C@H]2NC[C@H]2O1)C1CCCC1 labelclass="no (0)"
compound="COc1ccc2c(c1)[C@@]13CCCCC1[C@@H](C2)NCC3 (some centres undefined)" labelclass="no (0)"
compound=O=C(Cc1ccncc1)N1CCCCN2[C@@H](CO)[C@H](c3ccc(C#CC4(O)CCCC4)cc3)[C@@H]2C1 labelclass="no (0)"

Ask | Could you kindly confirm the outcome this assay logged for CCC(C)NC1(c2ccccc2)CCCCC1 (centres undefined) ?
Reply | no (0)

Ask | Could you kindly confirm the outcome this assay logged for C[C@@H]1CN([C@H](C)CO)C(=O)CCCn2cc(nn2)CO[C@@H]1CN(C)C(=O)Oc1cccc2ccccc12 ?
Reply | no (0)

Ask | Could you kindly confirm the outcome this assay logged for CCCCCCCCCCCCn1ccc(=N)cc1 ?
Reply | yes (1)

Ask | Could you kindly confirm the outcome this assay logged for O=c1[nH]c2ccccc2n1C1CCN(C(c2ccccc2)c2nnnn2Cc2ccccc2)CC1 (centres undefined) ?
Reply | no (0)
